target: HCV NS3/4A protease genotype 1b (Hepatitis C virus genotype 1b, UniProt P26663); assay: HCV NS3/4A protease time-resolved fluorescence (TRF) assay, Ki against genotype 1b; type: biochemical; settings: IC50 [gt-1b] (nM), NS3/4A genotype 1b, enzyme 0.2 nM
Sequence (P26663 1027-1657): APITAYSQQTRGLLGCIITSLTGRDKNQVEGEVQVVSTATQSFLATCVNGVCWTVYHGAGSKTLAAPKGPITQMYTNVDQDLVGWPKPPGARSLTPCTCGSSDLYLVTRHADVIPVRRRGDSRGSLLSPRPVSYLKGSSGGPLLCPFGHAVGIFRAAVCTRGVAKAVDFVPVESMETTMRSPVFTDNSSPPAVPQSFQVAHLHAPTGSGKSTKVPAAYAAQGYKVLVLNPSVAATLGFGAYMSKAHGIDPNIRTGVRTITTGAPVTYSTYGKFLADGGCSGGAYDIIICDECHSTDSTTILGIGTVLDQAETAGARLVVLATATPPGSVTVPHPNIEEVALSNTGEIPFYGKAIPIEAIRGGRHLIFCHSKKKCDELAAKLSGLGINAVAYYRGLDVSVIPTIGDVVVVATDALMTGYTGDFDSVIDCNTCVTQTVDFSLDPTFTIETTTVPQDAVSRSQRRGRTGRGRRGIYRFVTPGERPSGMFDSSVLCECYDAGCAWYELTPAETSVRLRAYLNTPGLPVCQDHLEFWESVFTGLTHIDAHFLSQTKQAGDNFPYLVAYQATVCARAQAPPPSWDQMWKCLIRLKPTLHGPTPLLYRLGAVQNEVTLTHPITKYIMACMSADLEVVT
Sequence (P26663 1658-1711): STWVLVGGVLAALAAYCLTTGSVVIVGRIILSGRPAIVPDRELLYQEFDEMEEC
# key: entry, value: IC50
Kindly answer with a numeric value in nM, unit omitted.

// worked examples, IC50 included
{"TEST_SMILES": "CC(C)OC(=O)N[C@H]1CCCCC/C=C\\[C@@H]2C[C@@]2(C(=O)NS(=O)(=O)C2(C)CC2)NC(=O)[C@@H]2C[C@]3(CCc4c(c(C(F)(F)F)nc5ccccc45)O3)CN2C1=O", "UNIT_TEXT": "nM", "IC50": 0.02}
{"TEST_SMILES": "CC(C)(C)OC(=O)N[C@H]1CCCCC/C=C\\[C@@H]2C[C@@]2(C(=O)NS(=O)(=O)C2(C)CC2)NC(=O)[C@@H]2C[C@]3(CCc4c(c(C(F)(F)F)nc5ccc(OCCN6CCOCC6)cc45)O3)CN2C1=O", "UNIT_TEXT": "nM", "IC50": 0.02}

For the next question, use this molecule.
The molecule CC(C)C1(OC(=O)N[C@H]2CCCCC/C=C\[C@@H]3C[C@@]3(C(=O)NS(=O)(=O)C3(C)CC3)NC(=O)[C@@H]3C[C@]4(CCc5c(c(C(F)(F)F)nc6ccccc56)O4)CN3C2=O)CC1 , when measured on HCV NS3/4A protease genotype 1b (Hepatitis C virus genotype 1b, UniProt P26663), yielded IC50 of 0.02
